target: Gamma-secretase; test: Modulation of gamma-secretase (unknown origin) assessed as inhibition of amyloid beta 42 production; type: protein-complex assay, Homo sapiens
OUTCOME_MEASURE: IC50 (nM)
Numeric only. Scale: nM

compound="CC(=O)O[C@@H]([C@@H]1C[C@@H](C)[C@H]2[C@H](O1)[C@H](O)[C@@]1(C)[C@@H]3CC[C@H]4C(C)(C)[C@@H](OC(=O)C5CCCO5)CC[C@@]45C[C@@]35CC[C@]21C)C(C)(C)O (mixture of isomers)" outcome_measure=IC50 val=860
compound=CC(=O)O[C@@H]([C@@H]1C[C@@H](C)[C@H]2[C@H](O1)[C@H](O)[C@@]1(C)[C@@H]3CC[C@H]4C(C)(C)[C@@H](OC(=O)c5ccncc5)CC[C@@]45C[C@@]35CC[C@]21C)C(C)(C)O outcome_measure=IC50 val=1000
compound=CC(=O)O[C@@H]([C@@H]1C[C@@H](C)[C@H]2[C@H](O1)[C@H](O)[C@@]1(C)[C@@H]3CC[C@H]4C(C)(C)[C@@H](OC(=O)CN(C)C)CC[C@@]45C[C@@]35CC[C@]21C)C(C)(C)O outcome_measure=IC50 val=570

Now let's try a different one.
[in] Please report the recorded IC50 for CC(=O)O[C@@H]([C@@H]1C[C@@H](C)[C@H]2[C@H](O1)[C@H](O)[C@@]1(C)[C@@H]3CC[C@H]4C(C)(C)[C@@H](OC(=O)N5CCC5)CC[C@@]45C[C@@]35CC[C@]21C)C(C)(C)O .
[out] 340

* * *

Recorded IC50 values for a group of molecules are listed next.
target: Gamma-secretase; test: Modulation of gamma-secretase (unknown origin) assessed as inhibition of amyloid beta 40 production; format: protein-complex assay, Homo sapiens

Examples from the recorded data:
smiles_text=CC(=O)O[C@@H]([C@@H]1C[C@@H](C)[C@H]2[C@H](O1)C(=O)[C@@]1(C)[C@@H]3CC[C@H]4C(C)(C)[C@@H](O[C@@H]5OC[C@@H](O)[C@H](O)[C@H]5O)CC[C@@]45C[C@@]35CC[C@]21C)C(C)(C)O experimental_system=Gamma-secretase val="9.8 µM"
smiles_text=CC(=O)O[C@@H]([C@@H]1C[C@@H](C)C2=C(O1)[C@H](O)[C@@]1(C)[C@@H]3CC[C@H]4C(C)(C)[C@@H](O[C@@H]5OC[C@@H](O)[C@H](O)[C@H]5O)CC[C@@]45C[C@@]35CC[C@]21C)C(C)(C)O experimental_system=Gamma-secretase val="2.7 µM"

[in] Please report the recorded IC50 for CC(=O)O[C@@H]([C@@H]1C[C@@H](C)[C@H]2[C@H](O1)[C@H](O)[C@@]1(C)[C@@H]3CC[C@H]4C(C)(C)[C@@H](OC(=O)N5CCOCC5)CC[C@@]45C[C@@]35CC[C@]21C)C(C)(C)O .
[out] 13.6 µM
